# credit: the METLIN SMRT retention time set (Domingo-Almenara et al. 2019)

- assay-overview: gradient 5% acetonitrile 3 min, to 50% in 2 min, to 85% in 15 min, held 3 min, 100 µL/min
- test-context: column: Zorbax Extend-C18 2.1 x 50 mm; eluents: water / acetonitrile, 0.1% formic acid
Listed here are molecules together with their documented RP-LC retention time.
recorded-endpoint: RP-LC retention time (s)

molecule=CNC(=O)c1c(NC(=O)COc2ccccc2)sc2c1CCC2 recorded_endpoint="RP-LC retention time" unit_string=s result=1020
molecule=Cn1c(=O)sc2cc(S(=O)(=O)N3CCC(C(=O)NC4CCCCCC4)CC3)ccc21 recorded_endpoint="RP-LC retention time" unit_string=s result=896
molecule=CC(C)NC(=O)C1CCN(S(=O)(=O)c2cc(C(=O)N3CCCCCC3)cs2)CC1 recorded_endpoint="RP-LC retention time" unit_string=s result=767
molecule=COc1ccc(Nc2c(-c3ccc(N4CCOCC4)cc3)nc3ncccn23)cc1 recorded_endpoint="RP-LC retention time" unit_string=s result=654
molecule=Cc1cccn2cc(C(=O)NCCC(C)C)nc12 recorded_endpoint="RP-LC retention time" unit_string=s result=712
molecule=COc1cc(CNC(=O)c2ccc(Cc3c(C)noc3C)o2)cc(OC)c1OC recorded_endpoint="RP-LC retention time" unit_string=s result=744
molecule=COc1ccccc1N1CCN(c2cc(SCC(=O)Nc3ccc4c(c3)OCO4)ncn2)CC1 recorded_endpoint="RP-LC retention time" unit_string=s result=900
molecule=O=C(CCn1nnc2cc(-c3noc(-c4cccc(Br)c4)n3)ccc21)N1CCOCC1 recorded_endpoint="RP-LC retention time" unit_string=s result=980
molecule=Cc1ccc(S(=O)(=O)Nc2ccc(Nc3ccc(-n4cccn4)nn3)cc2)c(C)c1 recorded_endpoint="RP-LC retention time" unit_string=s result=829
molecule="O=C(Nc1cccc(F)c1)C1CCc2nc(N3CCCCC3)ncc2C1 (centres undefined)" recorded_endpoint="RP-LC retention time" unit_string=s result=800
molecule="Cc1nn(C(C)C(=O)NC(C)C)c(=O)c2nn(-c3ccccc3)c(C)c12 (centres undefined)" recorded_endpoint="RP-LC retention time" unit_string=s result=739
molecule=O=C1NC2(CCN(C(=O)c3ccc(F)cc3)CC2)N=C1c1ccc(Cl)cc1 recorded_endpoint="RP-LC retention time" unit_string=s result=872
molecule=Cc1ccc(-c2cc(C(=O)N(C)C)n(C)c2)cc1 recorded_endpoint="RP-LC retention time" unit_string=s result=891
molecule=O=C(Nc1nc2c(s1)CN(C(=O)Nc1ccc(Cl)c(Cl)c1)CC2)c1cnccn1 recorded_endpoint="RP-LC retention time" unit_string=s result=811
molecule=COc1ccc(NC(=O)Cn2nc3n(c2=O)CCCC3)cc1 recorded_endpoint="RP-LC retention time" unit_string=s result=634
molecule=CCOC(=O)c1c(C)oc2nc(C)nc(NCCc3ccc(OCC)cc3)c12 recorded_endpoint="RP-LC retention time" unit_string=s result=1270
molecule="O=C(Cc1cccs1)N1CCCC1c1cccc(F)c1 (centres undefined)" recorded_endpoint="RP-LC retention time" unit_string=s result=817
molecule=COc1cc([N+](=O)[O-])ccc1NC(=O)CCS(=O)(=O)c1ccc(Cl)cc1 recorded_endpoint="RP-LC retention time" unit_string=s result=854
molecule=CC(=O)N1CCc2cc(-c3ccc(C(=O)N4CCC(C)CC4)cc3)ccc21 recorded_endpoint="RP-LC retention time" unit_string=s result=889
molecule=Cc1nc(N2CCOCC2)c2c(C(=O)N3CCN(c4cc(Cl)ccc4C)CC3)c(C)oc2n1 recorded_endpoint="RP-LC retention time" unit_string=s result=983
molecule=Cc1cc(Cl)ccc1NC(=O)N1C[C@H](c2nc(-c3cccnc3)no2)[C@@H](C)C1 recorded_endpoint="RP-LC retention time" unit_string=s result=827
molecule=O=C(C1CCN(S(=O)(=O)c2ccc(-c3noc(C4CC4)n3)cc2)CC1)N1CCc2ccccc21 recorded_endpoint="RP-LC retention time" unit_string=s result=800
molecule="CCC1CCCCN1C(=O)c1cnc2nc(C)ccc2c1Nc1cc(OC)ccc1OC (centres undefined)" recorded_endpoint="RP-LC retention time" unit_string=s result=689
molecule=Cc1nnc2cc(N3CCN(S(=O)(=O)c4ccccc4F)CC3)cnn12 recorded_endpoint="RP-LC retention time" unit_string=s result=674
molecule="CC(=O)N1CCc2cc(N3CC(C(=O)Nc4cc(Cl)ccc4F)CC3=O)ccc21 (centres undefined)" recorded_endpoint="RP-LC retention time" unit_string=s result=768
molecule=CCOC(=O)CSc1nnc2n1CCN2c1ccc(OC)cc1 recorded_endpoint="RP-LC retention time" unit_string=s result=707
molecule=CCOC(=O)c1ccccc1NC(=O)C1=Cc2ccccc2OC=C1 recorded_endpoint="RP-LC retention time" unit_string=s result=1410
molecule=Cc1ccc(-c2nc(-c3ccc4c(c3)oc(=O)n4C(C)C)no2)cc1 recorded_endpoint="RP-LC retention time" unit_string=s result=1280
molecule="CC(C)C(NC(=O)NCc1ccccc1)C(=O)N1CCc2ccccc21 (centres undefined)" recorded_endpoint="RP-LC retention time" unit_string=s result=896
molecule="CCOCCCNC(=O)C1(C)Cn2c(ccc2-c2ccco2)C(=O)N1c1ccc(OC)cc1 (centres undefined)" recorded_endpoint="RP-LC retention time" unit_string=s result=791
molecule=O=C(O)c1cnc(-c2ccccc2)nc1-c1ccncc1 recorded_endpoint="RP-LC retention time" unit_string=s result=653
molecule=CCN(C(=O)c1ccc(OC)c(OC)c1)c1nc(-c2ccc(C)cc2)cs1 recorded_endpoint="RP-LC retention time" unit_string=s result=1200
molecule=COCCc1noc(-c2ccc(=O)n(CC(=O)NC3CCCCC3)c2)n1 recorded_endpoint="RP-LC retention time" unit_string=s result=684
molecule="COc1cccc(-c2noc(C3CCCN3C(=O)Nc3cc(Cl)ccc3OC)n2)c1 (centres undefined)" recorded_endpoint="RP-LC retention time" unit_string=s result=1130
molecule="COc1cc([C@@H]2c3cc4c(cc3[C@H](O)C3COC(=O)[C@@H]32)OCO4)cc(OC)c1OC (some centres undefined)" recorded_endpoint="RP-LC retention time" unit_string=s result=811
molecule=COc1ccc(CN2C=C(C(=O)OCc3ccccc3C)C(C)=NS2(=O)=O)cc1 recorded_endpoint="RP-LC retention time" unit_string=s result=1140
molecule=COc1ccc(-n2c(=O)c(C(=O)Nc3ccc(OC)c(F)c3)c(O)c3cccnc32)cc1 recorded_endpoint="RP-LC retention time" unit_string=s result=1200
molecule="Cc1ccc(Cn2c(N3CCCC(C(=O)NCc4ccccc4F)C3)nc3ccsc3c2=O)cc1 (centres undefined)" recorded_endpoint="RP-LC retention time" unit_string=s result=981
molecule=Cn1cccc1CN(C(=O)C1CCC1)C1CC1 recorded_endpoint="RP-LC retention time" unit_string=s result=796
